assay: Solubility; format: physicochemical; conditions: pH 2.7, aqueous buffer; read-out: Solubility pH 2.7
I'd be grateful if you could share measured solubility for these entries.

• CCCc1nc(C)c2c(=O)[nH]c(-c3cc(S(=O)(=O)N(C)[C@H](C)C(=O)N(C)C)ccc3OCC)nn12 = > 100 µM
• CCCc1nc(C)c2c(=O)[nH]c(-c3cc(S(=O)(=O)N(C)[C@@H](C)C(=O)NC)ccc3OCC)nn12 = 69.4 µM
• CCCc1nc(C)c2c(=O)[nH]c(-c3cc(S(=O)(=O)N(C)CC(=O)N4CCOCC4)ccc3OCC)nn12 = > 100 µM

Request: Sample CCCc1nc(C)c2c(=O)[nH]c(-c3cc(S(=O)(=O)N(C)CC(=O)N(CC)CC)ccc3OCC)nn12 — what was its solubility?
Response: > 100 µM

---

Endpoint: pIC50. System: PDE5 (Homo sapiens). Items follow.
Numbers only, as −log10 of the molar value.

Here is how some compounds turned out for pIC50.
* CCCc1nc(C)c2c(=O)[nH]c(-c3cc(S(=O)(=O)N(C)CC(=O)N(CC)CC)ccc3OCC)nn12 | 9.11
* CCCc1nc(C)c2c(=O)[nH]c(-c3cc(S(=O)(=O)N(C)CC(=O)NC)ccc3OCC)nn12 | 9.60
* CCCc1nc(C)c2c(=O)[nH]c(-c3cc(S(=O)(=O)N[C@@H](C)C(=O)N(C)C)ccc3OCC)nn12 | 9.18
* CCCc1nc(C)c2c(=O)[nH]c(-c3cc(S(=O)(=O)N(C)C4(C(=O)N(C)C)CC4)ccc3OCC)nn12 | 9.38
* CCCc1nc(C)c2c(=O)[nH]c(-c3cc(S(=O)(=O)N[C@H](C)C(=O)N(C)C)ccc3OCC)nn12 | 9.44

Below are some compounds; for each one, tell me its pIC50.
1. CCCc1nc(C)c2c(=O)[nH]c(-c3cc(S(=O)(=O)N(C)[C@H](C)C(=O)N(C)C)ccc3OCC)nn12
2. CCCc1nc(C)c2c(=O)[nH]c(-c3cc(S(=O)(=O)N(C)C(C)(C)C(=O)N(C)C)ccc3OCC)nn12
3. CCCc1nc(C)c2c(=O)[nH]c(-c3cc(S(=O)(=O)N(C)CC(=O)N(C)C)ccc3OCC)nn12

Response:
1: 10.40; 2: 9.80; 3: 10.01

Below are some compounds; for each one, tell me its pIC50.
1. CCCc1nc(C)c2c(=O)[nH]c(-c3cc(S(=O)(=O)N(C)[C@H](C)C(=O)NC)ccc3OCC)nn12
2. CCCc1nc(C)c2c(=O)[nH]c(-c3cc(S(=O)(=O)NC(C)(C)C(=O)N(C)C)ccc3OCC)nn12

Response:
1. 9.46
2. 9.71

---

I'd be grateful if you could share measured solubility for these entries.
assay: Solubility; assay type: physicochemical; settings: pH 7.4, aqueous buffer; read-out: Solubility pH 7.4

Here is how some molecules turned out for solubility.
* CCCc1nc(C)c2c(=O)[nH]c(-c3cc(S(=O)(=O)N(C)[C@H](C)C(=O)N(C)C)ccc3OCC)nn12 [Compound 2] | > 100 µM
* CCCc1nc(C)c2c(=O)[nH]c(-c3cc(S(=O)(=O)N(C)CC(=O)N4CCN(C)CC4)ccc3OCC)nn12 [Compound 7] | > 100 µM
* CCCc1nc(C)c2c(=O)[nH]c(-c3cc(S(=O)(=O)N(C)C(C)(C)C(=O)N(C)C)ccc3OCC)nn12 [Compound 3] | > 100 µM

Below are some molecules; for each one, tell me its solubility.
1. CCCc1nc(C)c2c(=O)[nH]c(-c3cc(S(=O)(=O)NC(C)(C)C(=O)N(C)C)ccc3OCC)nn12 [Compound 19]
2. CCCc1nc(C)c2c(=O)[nH]c(-c3cc(S(=O)(=O)N[C@H](C)C(=O)N(C)C)ccc3OCC)nn12 [Compound 18]
3. CCCc1nc(C)c2c(=O)[nH]c(-c3cc(S(=O)(=O)N(CC)CC(=O)N(CC)CC)ccc3OCC)nn12 [Compound 10]
4. CCCc1nc(C)c2c(=O)[nH]c(-c3cc(S(=O)(=O)N(C)CC(=O)NC)ccc3OCC)nn12 [Compound 21]
5. CCCc1nc(C)c2c(=O)[nH]c(-c3cc(S(=O)(=O)N(C)[C@H](C)C(=O)NC)ccc3OCC)nn12 [Compound 14]
6. CCCc1nc(C)c2c(=O)[nH]c(-c3cc(S(=O)(=O)N(C)CC(=O)N(CC)CC)ccc3OCC)nn12 [Compound 8]

Response:
7.1 µM
75.8 µM
78.5 µM
> 100 µM
64 µM
> 100 µM

Request: Sample CCCc1nc(C)c2c(=O)[nH]c(-c3cc(S(=O)(=O)N(C)[C@@H](C)C(=O)N(C)C)ccc3OCC)nn12 [Compound 12] — what was its solubility?
Response: 100 µM
